The reader will find reported growth inhibition values listed item by item below.
Assay: NCI Yeast Anticancer Drug Screen. Data for the sgs1 mgt1 strain (AID 161);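 note: 0% = growth of cultures given vehicle only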
Conditions: S. cerevisiae sgs1 mgt1 strain, at 50.0 µM, stronger effect = higher value
This is part of a sample that, as a whole, favours compounds with a hit. Of some 79,000 tested, about 15% had one in any assay.
measured-parameter: growth inhibition (%)

>>> measurement("CC(=O)OC(NC(=O)c1cc(C)cc(C)c1)c1ccncc1 (configuration not stated)")
-0.75
>>> measurement("C/C=C(\\C)C(=O)OC1CC(C)(O)C(=O)C(OC(=O)/C(C)=C/C)C2(C)CCC(O)(C(C)C)C12 (configuration not stated)")
-34.7
>>> measurement("CCOC(=O)/C=C/C(=O)O.[Cu+2]")
-4
>>> measurement("CN(Cc1ccccc1)C(=O)c1ccc(Cl)cc1")
6.25
>>> measurement("N#Cc1c(O)c(-c2ccccc2)c(=O)n2c1[nH]c1ccccc12")
-13.6
>>> measurement("Cc1cccc(Cl)c1N=Nc1c(C)nc(N)nc1-c1ccccc1")
5.8
>>> measurement("Cc1ccc2sc3cc(=O)cc(C)c-3nc2c1")
-15.1
>>> measurement("CCOc1ccc(/C=N/O)cc1OCC")
-10.2
>>> measurement("CC(=O)C(c1ccccc1)S(=O)(=O)c1ccc(C)cc1 (configuration not stated)")
-11.7
>>> measurement("Cc1c(O)c2ccc3ccccc3c2oc1=O")
-7.05
>>> measurement("c1ccc(Cn2nnc(-c3ccccc3)n2)cc1")
5.3
>>> measurement("Cc1ccc([N+](=O)[O-])cc1NC(=O)NCCCl")
5.5

* * *

Assay: NCI Yeast Anticancer Drug Screen. Data for the mec2-1 strain (AID 157)
Settings: S. cerevisiae mec2-1 strain, at 50.0 µM, stronger effect = higher value
The panel holds about 79,000 compounds, 15% with a hit somewhere; the sample as a whole holds those more often. *1 amine or outer side, *2 acyl side, *3 side chain or, on linkers, in order; H or OH if unused. Where a SMILES comes first, the peptide text is derived from it. [ ]: non-standard residue; d: D form. X8 = C=CCC(O[*:1])C(=O)[*:2]; NMeV = CN[CH](C(=O)O)C(C)C; NMeA = CN[CH](C)C(=O)O; βAla = NCCC(=O)O
measured-parameter: growth inhibition (%)

>>> measurement("Cn1cnc2cc([N+](=O)[O-])ccc21")
-7.95
>>> measurement("COc1ccc(/C(Cl)=C(\\C=N/O)c2ccc(OC)c(OC)c2)cc1OC")
11.9
>>> measurement("O=c1[nH]cc(N=Cc2ccccc2O)c(=O)[nH]1.[Cl][Pt]")
9.05
>>> measurement("CCCC(=O)Oc1ccccc1C1CCCCC1")
23.8
>>> measurement("CC1CC(C)(C)OC(C2CC=CCC2)O1 (stereo not drawn)")
-19.6
>>> measurement("N/N=C(/CC(O)(C(F)(F)F)C(F)(F)F)c1ccccc1")
-24.9
>>> measurement("CCc1ccc[n+](-c2ccncc2CC)c1")
-9.55
>>> measurement("CC1(C)COC(c2ccc(CC(Cc3ccc(C4(C(C)(C)C)OCC(C)(C)CO4)cc3)C(=O)O)cc2)(C(C)(C)C)OC1")
-19.8
>>> measurement("CN(C)c1nc(=NCc2cccs2)ss1")
46.3
>>> measurement("NC(=O)CS(=O)Cc1cccc(Br)c1 (stereo not drawn)")
-11.2
>>> measurement("CC1=NN(c2ccccc2)C(=O)/C1=C\\c1ccc([N+](=O)[O-])cc1")
29.1
>>> measurement("COC(=O)C1(C(=O)OC)OC(c2ccc(OC)cc2)[C@H]2C(=O)N(C)C(=O)[C@H]21 (stereo partly drawn)")
-6
>>> measurement("COCCOC(=O)CCC(C)=O")
15.1
>>> measurement("COC(C)CCOC(=O)c1ccc(C(C)C)cc1 (stereo not drawn)")
8
>>> measurement("c1ccc(N=C2CCCCCC2)cc1")
14.2
>>> measurement("CCC(CC)C(=O)O")
-3.5
>>> measurement("C=CCC1OC(=O)CCNC(=O)C(C)N(C)C(=O)C(C(C)C)N(C)C(=O)C(C(C)CC)NC(=O)C2CCCN2C1=O (stereo not drawn) (cyclo([X8]PI[NMeV][NMeA][βAla]); configuration not given here)")
10.1
>>> measurement("CCC1C(OC)=CC2(CC)CC1(OC)OC2=O (stereo not drawn)")
-0.3
>>> measurement("CN(C)CCCC[N+](C)(C)Cc1ccc(C[N+](C)(C)CCCC[N+](C)(C)Cc2ccc(CCl)cc2)cc1")
-15
>>> measurement("O=S(=O)([N-]c1nc2ccccc2nc1-[n+]1ccccc1)c1ccccc1")
-0.2
>>> measurement("CCSc1[nH]c2nc[nH]c(=O)c2c1C#N")
21.2
>>> measurement("c1ccc(B2OCC(C3OB(c4ccccc4)OC4COB(c5ccccc5)OC43)O2)cc1 (stereo not drawn)")
-2.45
>>> measurement("COc1ccc(S(=O)(=O)N/N=C/C(=O)OCOC(=O)C(C)(C)C)cc1")
-11.8
